Tested on: RAW-Dual (murine macrophage reporter line)
assayOverview: IRF reporter (Lucia luciferase) activity fold change vs agonist alone; higher = enhanced IRF activity
protocolConditions: modulator concentration 10 µM; agonist: LPS 0.1 ug/mL
Item-by-item account of IRF reporter

>  <compound>
CCCCCCOc1ccc(N2C(=O)CC(N3CCN(Cc4ccc5c(c4)OCO5)CC3)C2=O)cc1 (centres undefined)

>  <IRF reporter>
1.38

$$$$
>  <compound>
Cc1cccc(C(=O)N2CCCC(c3nnc(CC(C)(C)C)o3)C2)c1 (centres undefined)

>  <IRF reporter>
1.33

$$$$
>  <compound>
CCN1CCCC1CNC(=O)c1cc(S(N)(=O)=O)ccc1OC (centres undefined)

>  <IRF reporter>
0.982

$$$$
>  <compound>
COc1ccc(C(=O)Nc2ccc(Br)c(C)c2)cc1

>  <IRF reporter>
1.01

$$$$
>  <compound>
N=C(N)NCCN1CCCCCCC1.O=S(=O)(O)O

>  <IRF reporter>
1.27

$$$$
>  <compound>
CCCC(CCC)C(N)=O

>  <IRF reporter>
1.04

$$$$
>  <compound>
CN1CCN(c2ccc(-c3cccc(NC(=O)COc4ccc(Cl)cc4Cl)c3)nn2)CC1

>  <IRF reporter>
1.16

$$$$
>  <compound>
Nc1ccc(O)c(C(=O)O)c1

>  <IRF reporter>
0.923

$$$$
>  <compound>
N#CC1=C(NC(=S)NC(=O)c2ccccc2)c2ccccc2CC12CCCCC2

>  <IRF reporter>
1.41

$$$$
>  <compound>
Cc1ccc(COc2cccc(C=C3SC(=S)NC3=O)c2)cc1

>  <IRF reporter>
1.18

$$$$
>  <compound>
Cc1occc1C(=O)Nc1ccc(F)c(F)c1

>  <IRF reporter>
1.07

$$$$
>  <compound>
c1ccc(CNc2nc(N3CCOCC3)nc(N3CCOCC3)n2)cc1

>  <IRF reporter>
1.09

$$$$
>  <compound>
O=C1Cc2cc(NC(=O)c3ccc(OC(F)(F)F)cc3)ccc2N1

>  <IRF reporter>
0.959

$$$$
>  <compound>
Cc1oncc1C(=O)Nc1ccc(C(F)(F)F)cc1

>  <IRF reporter>
1.12

$$$$
>  <compound>
CC(=O)Oc1ccc2c(C)c(Cl)c(=O)oc2c1C

>  <IRF reporter>
1.25

$$$$
>  <compound>
Cc1[nH]nc(-c2ccc(OCc3ccccc3)c(C)c2O)c1-c1cnn(-c2ccccc2)c1

>  <IRF reporter>
1.58

$$$$
>  <compound>
O=S(=O)(NN=Cc1c[nH]c2ccccc12)c1ccc(Cl)cc1

>  <IRF reporter>
1.32

$$$$
>  <compound>
CC1CC(OC(=O)C(O)c2ccccc2)CC(C)(C)N1C (centres undefined)

>  <IRF reporter>
1.09

$$$$
>  <compound>
O=C(c1ccc(F)c(F)c1Nc1ccc(I)cc1F)N1CC(O)([C@@H]2CCCCN2)C1

>  <IRF reporter>
4.08

$$$$
>  <compound>
COc1ccc(C)c2sc(=NC(=O)c3ccccc3)n(C)c12

>  <IRF reporter>
0.969

$$$$
>  <compound>
COc1ccc(NC(=O)c2nn(-c3ccc(F)cc3)cc2OC)cc1OC

>  <IRF reporter>
1.23

$$$$
>  <compound>
O=C(COC(=O)c1ccc(Cl)c([N+](=O)[O-])c1)c1ccc(Cl)cc1

>  <IRF reporter>
1.22

$$$$
>  <compound>
CC(=NN1CCN(Cc2cccc3ccccc23)CC1)c1ccc(Br)cc1

>  <IRF reporter>
1.05

$$$$
>  <compound>
CCOC(=O)C1=C(Nc2ccccc2)SC(=Cc2ccc(O)c(OCC)c2)C1=O

>  <IRF reporter>
1.26

$$$$

These entries and their values trace back to the supplement of paper PMC10646978.
